Listed here are compounds together with their documented TGI LOVO.
# Tested on: LoVo
# assayInfo: SRB colorimetric assay of cell growth and viability, LoVo
# Assay type: cell-based, human
# experimentalSetup: LOVO; 48 hours exposure
Where a SMILES comes first, the peptide text is derived from it. Bridges are numbered along the chain shown (N, C = ends). [ ]: non-standard residue; d: D form. The star is where a group is joined. Bip = N[C@@H](Cc1ccc(-c2ccccc2)cc1)C(=O)O; 2Nal = N[C@@H](Cc1ccc2ccccc2c1)C(=O)O; d(aIle) = CC[C@H](C)[C@@H](N)C(=O)O; d(aThr) = C[C@@H](O)[C@@H](N)C(=O)O; Hexanoyl(5-Me) = CC(C)CCCC(=O)*; Orn = NCCC[C@H](N)C(=O)O; Dhb = C/C=C(\N)C(=O)O
Value expressed in Molar; do not type the unit.

| compound | TGI LOVO [Molar] |
| --- | --- |
| C/C=C1\NC(=O)[C@H](Cc2ccc3ccccc3c2)NC(=O)[C@@H](C(C)C)NC(=O)[C@@H]([C@@H](C)CC)NC(=O)[C@H](NC(=O)[C@H](NC(=O)[C@H](CCCN)NC(=O)[C@H]2CCCN2C(=O)[C@H](NC(=O)[C@@H](NC(=O)[C@@H](NC(=O)[C@H](NC(=O)CCCC(C)C)C(C)C)[C@@H](C)O)C(C)C)C(C)C)[C@@H](C)CC)[C@@H](C)OC(=O)[C@H](C(C)C)NC1=O [Compound 85, [Nal^3]-KF] ({Hexanoyl(5-Me)}-[dV]TV[dV][dP][Orn][d(aIle)][d(aThr)][d(aIle)][dV][2Nal][Dhb]V; ester 8-C) | 8.16E−08 |
| C/C=C1\NC(=O)[C@H](Cc2cccc(Cl)c2)NC(=O)[C@@H](C(C)C)NC(=O)[C@@H]([C@@H](C)CC)NC(=O)[C@H](NC(=O)[C@H](NC(=O)[C@H](CCCN)NC(=O)[C@H]2CCCN2C(=O)[C@H](NC(=O)[C@@H](NC(=O)[C@@H](NC(=O)[C@H](NC(=O)CCCC(C)C)C(C)C)[C@@H](C)O)C(C)C)C(C)C)[C@@H](C)CC)[C@@H](C)OC(=O)[C@H](C(C)C)NC1=O [Compound 82, [Phe(3-Cl)^3]-KF] | 8.73E−08 |
| C/C=C1\NC(=O)[C@H](Cc2ccc(-c3ccccc3)cc2)NC(=O)[C@@H](C(C)C)NC(=O)[C@@H]([C@@H](C)CC)NC(=O)[C@H](NC(=O)[C@H](NC(=O)[C@H](CCCN)NC(=O)[C@H]2CCCN2C(=O)[C@H](NC(=O)[C@@H](NC(=O)[C@@H](NC(=O)[C@H](NC(=O)CCCC(C)C)C(C)C)[C@@H](C)O)C(C)C)C(C)C)[C@@H](C)CC)[C@@H](C)OC(=O)[C@H](C(C)C)NC1=O [Compound 86, [Bip^3]-KF] ({Hexanoyl(5-Me)}-[dV]TV[dV][dP][Orn][d(aIle)][d(aThr)][d(aIle)][dV][Bip][Dhb]V; ester 8-C) | 2.89E−07 |

Please find the next compound below.
Request: Form field - read-out: TGI LOVO; system: LoVo; submitted item: C/C=C1\NC(=O)[C@H](Cc2ccc(F)c(F)c2)NC(=O)[C@@H](C(C)C)NC(=O)[C@@H]([C@@H](C)CC)NC(=O)[C@H](NC(=O)[C@H](NC(=O)[C@H](CCCN)NC(=O)[C@H]2CCCN2C(=O)[C@H](NC(=O)[C@@H](NC(=O)[C@@H](NC(=O)[C@H](NC(=O)CCCC(C)C)C(C)C)[C@@H](C)O)C(C)C)C(C)C)[C@@H](C)CC)[C@@H](C)OC(=O)[C@H](C(C)C)NC1=O [Compound 84, [Phe(3,4-F2)^3]-KF]
Response: 7.25E−08
